system-tested: GalNAc-T4 lectin domain (Homo sapiens)
Construct: comprises amino acid residues 405-578 of GALNT4
Sequence (Q8N4A0 405-578): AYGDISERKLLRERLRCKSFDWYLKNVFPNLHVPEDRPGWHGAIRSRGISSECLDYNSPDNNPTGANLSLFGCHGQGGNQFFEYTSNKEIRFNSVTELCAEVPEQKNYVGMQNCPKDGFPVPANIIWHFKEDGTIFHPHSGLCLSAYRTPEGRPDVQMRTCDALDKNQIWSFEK
test-summary: Inhibition of GalNAc-T4 lectin domain (T4ld) binding to GalNAc-MUC1 glycopeptide, ELISA
measured-quantity: pIC50
Recall that pIC50 is obtained by taking minus log10 of the concentration measured in molar.

Known pIC50 results, listed for orientation:
{"compound": "CC(=O)N[C@H]1[C@@H](Oc2ccccc2[N+](=O)[O-])O[C@H](CO)[C@H](O)[C@@H]1O [oNPαGalNAc]", "value-observed": 2.30}
{"compound": "CC(=O)N[C@H]1[C@@H](OP(=O)(O)OP(=O)(O)OC[C@H]2O[C@@H](n3ccc(=O)[nH]c3=O)[C@H](O)[C@@H]2O)O[C@H](CO)[C@H](O)[C@@H]1O [UDPαGalNAc, UDP-N-acetylgalactosamine]", "value-observed": 1.30}
{"compound": "CC(=O)N[C@H]1[C@@H](OCc2ccccc2)O[C@H](CO)[C@H](O)[C@@H]1O [BzlαGalNAc, benzyl-N-acetyl-alpha-D-galactosaminide]", "value-observed": 2.30}

Turning to the following compound.
Would you kindly share the measured pIC50 for CC(=O)N[C@H]1C(O)O[C@H](CO)[C@H](O)[C@@H]1O (some centres unmarked) [GalNAc, N-acetylgalactosamine] ? 2.30
